# runDescription: Cytotoxicity against rat VSMC assessed as cell viability at >25 uM after 48 hrs by trypan blue exclusion assay
# Format: cell-based
# assaySetup: VSMC (vascular smooth muscle cells), read-out: Activity
valueType: viability at 48 h (%)
Just the number in %, nothing appended.

[Q] May I ask what viability at 48 h has been recorded for O=C(/C=C/c1ccc(O)c(O)c1)OCCc1ccccc1 [CAFFEIC ACID PHENETHYL ESTER] ?
[A] 65
